Collected DC50 values appear next to each entry.
- ASSAY TARGET: IRAK4 (Homo sapiens)
- Construct: Degradation of IRAK4 in OCI-LY10 was quantitatively measured using Meso Scale Discovery technology; endogenous in cells; host or cells: OCI-LY10
- Sequence (Q9NWZ3 whole entry): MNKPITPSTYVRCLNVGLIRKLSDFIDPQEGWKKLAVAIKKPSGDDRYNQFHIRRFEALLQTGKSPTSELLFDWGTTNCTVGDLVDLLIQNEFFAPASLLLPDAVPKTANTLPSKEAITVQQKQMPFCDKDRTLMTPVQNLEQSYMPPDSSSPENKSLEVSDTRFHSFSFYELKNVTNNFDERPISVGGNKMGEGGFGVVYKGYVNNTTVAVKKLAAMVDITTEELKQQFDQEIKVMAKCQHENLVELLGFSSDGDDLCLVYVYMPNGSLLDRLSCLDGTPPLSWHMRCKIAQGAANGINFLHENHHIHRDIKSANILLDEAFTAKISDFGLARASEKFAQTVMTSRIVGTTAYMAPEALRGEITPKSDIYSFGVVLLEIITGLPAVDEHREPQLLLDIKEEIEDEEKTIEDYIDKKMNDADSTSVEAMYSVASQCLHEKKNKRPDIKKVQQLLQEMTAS
- ASSAY: IRAK4 MSD Degradation in OCI-LY10
- Type: cell-based
- EXPERIMENTAL SETUP: OCI-LY10 cells, 4 hrs incubation, MSD; read-out: IRAK4 degradation in OCI-LY10 at 4 hrs: DC50
- Protocol: Degradation of IRAK4 in OCI-LY10 was quantitatively measured using Meso Scale Discovery technology. […] Compounds were then added to the assay plates with a final top concentration of 1 to 10 μM in a 1:3 dilution series with total of 8 doses. […] The assay plates were then incubated at room temperature for 1 hour, washed 3 times with 150 μL/well TBST buffer, and 150 μL/well MSD reading buffer (Meso Scale Discovery catalog number R92TC-2) was added. […]

For the compound `O=C1CCN(c2cncc3c(C4CCN(C5CCN(C[C@H]6CC[C@H](n7cc(NC(=O)c8cnn9ccc(N%10C[C@H]%11C[C@@H]%10CO%11)nc89)c(C(F)F)n7)CC6)CC5)CC4)cccc23)C(=O)N1` , what DC50 is on record?
< 10 nM

I would be grateful if you could share the reported DC50 for Cn1c(=O)n(C2CCC(=O)NC2=O)c2cccc(C#CC[C@H]3CN(Cc4ccc(-n5cc(NC(=O)c6cnn7ccc(N8C[C@H]9C[C@@H]8CO9)nc67)c(C(F)F)n5)cc4)CCO3)c21 (stereo partly shown) .
> 200 nM

Give its DC50 value. Item: Cn1c(=O)n(C2CCC(=O)NC2=O)c2cccc(C#CCOC3CCN(C[C@H]4CC[C@H](n5cc(NC(=O)c6cnn7ccc(N8CC9(COC9)C8)nc67)c(C(F)F)n5)CC4)CC3)c21 (stereo partly shown)
> 200 nM

Which DC50 value is on record for Cn1c(=O)n(C2CCC(=O)NC2=O)c2cccc(C#CCN3CCN(C[C@H]4CC[C@H](n5cc(NC(=O)c6cnn7ccc(N8CCCC89CC9)nc67)c(C(F)F)n5)CC4)CC3)c21 (stereo partly shown) ?
> 200 nM

---
# input compound: Cc1ccc(-c2nn([C@H]3CC[C@H](CN4CCN(CC#Cc5cccc6c5n(C)c(=O)n6C5CCC(=O)NC5=O)CC4)CC3)cc2NC(=O)c2cncc(C#N)c2)nc1 (stereo partly shown) ; wanted: its DC50
> 200 nM

So what's the measured DC50 for this one? CN(C[C@H]1CC[C@H](n2cc(NC(=O)c3cnn4ccc(N5C[C@H]6CC[C@@H](C5)O6)nc34)c(C(F)F)n2)CC1)C1CCN(c2cccc3c2n(C)c(=O)n3C2CCC(=O)NC2=O)CC1 (stereo partly shown)
> 200 nM

Consider the compound `O=C1CCN(c2cncc3c(C#CCO[C@@H]4CCN(C[C@H]5CC[C@H](n6cc(NC(=O)c7cnn8ccc(N9C[C@H]%10C[C@@H]9CO%10)nc78)c(C(F)F)n6)CC5)C[C@@H]4F)cccc23)C(=O)N1` and give its measured DC50.
< 10 nM
